# Tested on: EGFR L858R phosphorylation (pEGFR)
# Assay Method Text: Inhibitor activity on EGFR phosphorylation (pEGFR AlphaLISA), L858R
# Type: cell-based
# Condition Parameters: 2 hours
pIC50: −log10 of the molar value.
Experimental Endpoint: pIC50

[[record]]
smiles_notation = "COCCc1c[nH]c(=O)c2c(Nc3cccc(Cl)c3OC)c(-c3ccncn3)[nH]c12"
experimental_endpoint = "pIC50"
observed_value = "> 7.00"

[[record]]
smiles_notation = "COc1c(F)cccc1Nc1c(-c2ccnc(C)n2)[nH]c2c(CCO)c[nH]c(=O)c12"
experimental_endpoint = "pIC50"
observed_value = "6.00 to 7.00"


Incoming: # get_value(readout='pIC50', item= COCCc1c[nH]c(=O)c2c(Nc3cccc(F)c3OC)c(-c3ccnc(C)n3)[nH]c12 )
Outgoing: > 7.00

Incoming: Now the same for COc1c(Cl)cccc1Nc1c(-c2ccnc(C)n2)[nH]c2c(CCO)c[nH]c(=O)c12
Outgoing: > 7.00

Sourced from patent US20260297088A1
